Target: Mot3 (UniProt P54785)
Sequence: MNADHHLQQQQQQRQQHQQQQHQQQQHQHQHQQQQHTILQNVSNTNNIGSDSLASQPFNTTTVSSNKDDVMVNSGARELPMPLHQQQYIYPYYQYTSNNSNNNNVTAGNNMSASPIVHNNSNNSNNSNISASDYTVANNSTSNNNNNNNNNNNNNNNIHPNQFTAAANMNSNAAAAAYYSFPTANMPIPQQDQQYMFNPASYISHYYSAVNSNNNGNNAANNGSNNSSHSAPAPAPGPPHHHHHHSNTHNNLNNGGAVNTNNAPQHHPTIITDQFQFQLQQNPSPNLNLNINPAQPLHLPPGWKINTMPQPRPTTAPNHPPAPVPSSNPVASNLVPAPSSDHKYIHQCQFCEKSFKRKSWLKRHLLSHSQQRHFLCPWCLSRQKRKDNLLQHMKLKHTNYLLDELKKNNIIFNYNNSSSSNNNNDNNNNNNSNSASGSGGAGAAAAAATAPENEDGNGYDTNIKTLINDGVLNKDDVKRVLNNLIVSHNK
Test: PBM E-score (8-mer binding enrichment) (E-score (-0.5 to 0.5)); higher = stronger / more preferred TF binding
Conditions: protein concentration: 200 nM; construct: GST-full length
Over roughly 33,000 sequences, “E-score (-0.5 to 0.5)” has its median near -0.035; the highest 2% begin near 0.34. For the sample, the highest values were picked, then their nearest neighbours and some sequences at random.
Measured PBM E-score values are reported for all entries that follow.
readout.kind: PBM E-score

>>> experimental_value("AAGACAGA")
0.149
>>> experimental_value("GGAAGGAA")
0.384
>>> experimental_value("AACACAAA")
0.22
>>> experimental_value("ACTGAATC")
-0.0804
>>> experimental_value("CCCTTTAC")
0.15

---

Target: Mot3 (UniProt P54785)
Sequence: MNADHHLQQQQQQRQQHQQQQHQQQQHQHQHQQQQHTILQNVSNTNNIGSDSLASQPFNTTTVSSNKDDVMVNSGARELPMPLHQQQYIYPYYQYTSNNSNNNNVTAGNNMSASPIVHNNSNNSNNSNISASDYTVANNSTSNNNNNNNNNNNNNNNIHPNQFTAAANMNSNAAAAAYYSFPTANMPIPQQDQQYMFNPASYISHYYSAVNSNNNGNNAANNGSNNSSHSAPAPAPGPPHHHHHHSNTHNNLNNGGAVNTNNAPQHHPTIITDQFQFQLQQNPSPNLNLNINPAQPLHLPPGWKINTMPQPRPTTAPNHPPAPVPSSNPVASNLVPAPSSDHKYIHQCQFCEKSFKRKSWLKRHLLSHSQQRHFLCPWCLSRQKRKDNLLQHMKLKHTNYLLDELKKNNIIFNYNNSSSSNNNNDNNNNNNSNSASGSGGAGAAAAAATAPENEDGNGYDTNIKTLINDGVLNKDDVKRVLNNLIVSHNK
Assay: PBM E-score (8-mer binding enrichment) (E-score (-0.5 to 0.5)); higher = stronger / more preferred TF binding
Details: protein concentration: 200 nM; construct: GST-full length
Over roughly 33,000 sequences, “E-score (-0.5 to 0.5)” has its median near -0.035; the highest 2% begin near 0.34. This excerpt belongs to a sample that is enriched for the highest values.
Measured PBM E-score values are reported for all entries that follow.
readout.kind: PBM E-score

>>> experimental_value("CATGTAAG")
0.398
>>> experimental_value("TATGTAGA")
0.333
>>> experimental_value("CCTGTAAG")
0.282
>>> experimental_value("TCTGTAAA")
0.231
>>> experimental_value("AATGTAAG")
0.201
>>> experimental_value("TATGTAAA")
0.434
>>> experimental_value("ACACCGGA")
0.0203

---

Biological target: Mot3 (UniProt P54785)
Sequence: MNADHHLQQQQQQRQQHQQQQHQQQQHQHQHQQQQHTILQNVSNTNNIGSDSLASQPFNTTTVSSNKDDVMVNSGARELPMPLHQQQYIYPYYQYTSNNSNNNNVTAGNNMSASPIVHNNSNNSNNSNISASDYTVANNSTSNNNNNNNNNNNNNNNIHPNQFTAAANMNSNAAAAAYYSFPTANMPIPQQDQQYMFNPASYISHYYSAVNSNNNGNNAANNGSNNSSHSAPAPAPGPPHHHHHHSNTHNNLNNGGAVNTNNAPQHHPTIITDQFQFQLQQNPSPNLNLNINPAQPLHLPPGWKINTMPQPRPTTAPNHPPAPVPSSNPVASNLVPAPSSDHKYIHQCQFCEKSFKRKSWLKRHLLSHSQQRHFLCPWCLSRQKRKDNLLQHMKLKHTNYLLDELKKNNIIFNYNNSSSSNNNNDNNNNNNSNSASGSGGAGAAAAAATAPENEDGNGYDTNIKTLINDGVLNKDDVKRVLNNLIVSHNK
Assay: PBM E-score (8-mer binding enrichment) (E-score (-0.5 to 0.5)); higher = stronger / more preferred TF binding
Details: protein concentration: 200 nM; construct: GST-full length
In all, about 33,000 sequences were measured (“E-score (-0.5 to 0.5)”: median about -0.035, highest 2% from about 0.34 on). For the sample, the highest values were picked, then their nearest neighbours and some sequences at random.
readout.kind: PBM E-score

>>> experimental_value("GTGCGATA")
-0.123
>>> experimental_value("AGGTACCT")
0.434
>>> experimental_value("GAGTAATA")
0.147
>>> experimental_value("TGGTACCA")
-0.0506
>>> experimental_value("ACTCTACA")
0.174
>>> experimental_value("ATGTGTTA")
0.316
>>> experimental_value("GTGTGTTA")
0.348
>>> experimental_value("GGGTACCC")
-0.304
>>> experimental_value("TACATGGA")
0.346
>>> experimental_value("GCGTGTTA")
0.393
>>> experimental_value("GTGTAATA")
0.375
>>> experimental_value("CGCTCATA")
-0.225
>>> experimental_value("CGCCTAAC")
0.152
>>> experimental_value("GACATGAA")
0.274
>>> experimental_value("TTACAGAA")
0.106
>>> experimental_value("CGCGCGTC")
0.0273
>>> experimental_value("AGGTACCC")
0.361
>>> experimental_value("CGGTACCG")
-0.156
>>> experimental_value("ACGTGTCA")
0.342
>>> experimental_value("ACGTGTTC")
0.221
>>> experimental_value("GGGTAATA")
0.17
>>> experimental_value("GCGTGTGA")
0.177
>>> experimental_value("CGACTTTC")
0.0333
>>> experimental_value("AGGCCTCC")
-0.166
>>> experimental_value("AAGCACAG")
0.0561

---

Target: Mot3 (UniProt P54785)
Sequence: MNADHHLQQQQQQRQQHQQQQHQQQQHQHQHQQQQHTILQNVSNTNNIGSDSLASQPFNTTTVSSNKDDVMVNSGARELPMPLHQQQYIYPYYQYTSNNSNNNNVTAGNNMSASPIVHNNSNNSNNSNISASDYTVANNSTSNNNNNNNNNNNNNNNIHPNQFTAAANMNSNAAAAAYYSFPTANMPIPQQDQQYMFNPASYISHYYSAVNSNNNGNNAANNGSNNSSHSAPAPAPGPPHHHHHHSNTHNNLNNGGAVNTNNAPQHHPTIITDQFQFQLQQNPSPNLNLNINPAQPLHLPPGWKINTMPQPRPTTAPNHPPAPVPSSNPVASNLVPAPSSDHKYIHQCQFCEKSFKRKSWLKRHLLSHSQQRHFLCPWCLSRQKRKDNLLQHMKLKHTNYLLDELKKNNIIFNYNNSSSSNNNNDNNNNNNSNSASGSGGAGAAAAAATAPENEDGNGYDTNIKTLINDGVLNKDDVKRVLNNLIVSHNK
Test: PBM E-score (8-mer binding enrichment) (E-score (-0.5 to 0.5)); higher = stronger / more preferred TF binding
Details: protein concentration: 200 nM; construct: GST-full length
The full ranking holds about 33,000 sequences; the median of “E-score (-0.5 to 0.5)” is about -0.035, and the highest 2% start at about 0.34. This excerpt belongs to a sample that is enriched for the highest values.
Measured PBM E-score values are reported for all entries that follow.
readout.kind: PBM E-score

>>> experimental_value("ATGCCTGA")
0.376
>>> experimental_value("AGCCAACG")
0.0732
>>> experimental_value("AGGTTGTC")
-0.0425
>>> experimental_value("TTAGGGAA")
0.0178
>>> experimental_value("TTAGGCAA")
0.481
>>> experimental_value("TAATGTCA")
0.139
>>> experimental_value("GCCGTGGA")
-0.169
>>> experimental_value("ACCGTGTC")
0.216
>>> experimental_value("GAGCCTGC")
0.389
>>> experimental_value("CTGGCCCC")
-0.215
>>> experimental_value("TCATAACA")
0.255
>>> experimental_value("GAATGTAA")
0.295
>>> experimental_value("AAGGATCA")
0.0089
>>> experimental_value("GTAGGCAA")
0.49
>>> experimental_value("GTGAGCCA")
-0.12
>>> experimental_value("TAATGTAA")
0.354
>>> experimental_value("TATTACAA")
0.297
>>> experimental_value("ATAACACG")
0.391
>>> experimental_value("CAATGTAA")
0.34
>>> experimental_value("CTAGGCAC")
0.485
>>> experimental_value("ACCGTGTG")
0.175
>>> experimental_value("GTAGGCCA")
0.00764
>>> experimental_value("ACAACATA")
0.307
>>> experimental_value("CCCGTGGA")
-0.314
>>> experimental_value("AAATGTAA")
0.346
>>> experimental_value("CAATGTAC")
0.184
>>> experimental_value("ACCGTGTA")
0.397
>>> experimental_value("GCAAAAAA")
0.203
>>> experimental_value("CTAACACA")
0.313
>>> experimental_value("CAATGTAG")
0.234
>>> experimental_value("GTAGGCTA")
0.226
>>> experimental_value("ACAACATC")
0.195
>>> experimental_value("GTAACATA")
0.26
>>> experimental_value("ATTCTGAG")
0.0253
>>> experimental_value("TAGGGGGA")
-0.264
>>> experimental_value("CGCTAACG")
-0.0607
>>> experimental_value("CTAGGCAG")
-0.0742
